- Test system: UO-31 renal
- METHOD SUMMARY: NCI tumour cell line growth inhibition, 48 h
METRIC: GI50

// `CN(C)c1cc[c]([Sn]([c]2ccc(N(C)C)cc2)([c]2ccc(N(C)C)cc2)[c]2ccc(N(C)C)cc2)cc1` : GI50 value = 8.76 µM

// `O=c1cc(NC2CCN(CCCc3ccccc3)CC2)c2cc(Cl)ccc2o1` : GI50 value = 4.39 µM

// `ClCc1cccc(Cn2cnc3nc(Cl)nc(Cl)c32)c1` : GI50 value = 4.43 µM

----------
- Tested on: MALME-3M melanoma
- METHOD SUMMARY: NCI tumour cell line growth inhibition, 48 h; in the data active = GI50 below about 0.43 µM; inactive = the rest
Entry note: the call must match one of active, inactive

Task: Recorded call for `O=c1c2ccccc2c(=O)c2c1[nH]c1c(-c3ccccc3)c(-c3ccccc3)c(=O)c12` ?
Output: inactive

Task: Recorded call for Cc1ccc(-c2nc3ccc(Cl)cc3c(=O)n2N2C(=O)CSC2c2ccccc2Cl)cc1 (stereo not given) ?
Output: inactive

Task: Recorded call for `Cc1ncc(CCCN(C)C)cc1Nc1ncc2c(n1)-c1ccc(C(F)(F)F)cc1NC(=S)C2` ?
Output: active

Task: Recorded call for `CN(C)CCN1C(=O)c2ccc3c4c(ccc(c24)C1=O)C(=O)N(CCN=C=S)C3=O` ?
Output: active

Task: Recorded call for `Nc1ccc(-c2nc3ccc(Cc4ccc5nc(-c6ccc(N)cc6)[nH]c5c4)cc3[nH]2)cc1` ?
Output: inactive

Task: Recorded call for `Br[C](Br)(Br)[Hg][c]1ccccc1` ?
Output: inactive

Task: Recorded call for `CN(CCC#N)c1ccc(/C=C(\C#N)c2ccc(Br)cc2)cc1` ?
Output: inactive

Task: Recorded call for `CCn1c(SCc2ccc(C)cc2)nnc1-c1nn(-c2ccc(Cl)cc2Cl)c(-c2ccc(Cl)cc2)c1C` ?
Output: inactive

Task: Recorded call for `CC(C)C[C@H](NC(=O)/C=C/Cn1ccc2ccccc2c1=O)B(O)O` ?
Output: inactive

Task: Recorded call for `COc1ccc(C(=O)COc2ccc(/C=C3\COc4ccc(OC)cc4C3=O)cc2)cc1` ?
Output: inactive
